Cited source: patent US4416877A

test system: tissue cholesterol; assay: Effects in cholesterol fed rats (serum, liver and aorta lipids); type: in vivo; settings: cholesterol fed rats (C.F), 200 mg/kg/day
Observed Property: Aorta Chol. (% control values) (%)
// return numeric value only (unit: %, not printed)

Fill in the blank: the reported Aorta Chol. (% control values) of COP(=O)(OC)OC(c1ccc(Cl)cc1)P(=O)(OC)OC (stereo not shown) is ____. -30

More entries:
Which Aorta Chol. (% control values) reading was recorded for the molecule COP(=O)(OC)C(O)(C(C)(C)Oc1ccc(Cl)cc1)P(=O)(OC)OC ? -19

Given COP(=O)(OC)C(O)(c1ccc(C(=O)c2ccc(Cl)cc2)cc1)P(=O)(OC)OC , state its recorded Aorta Chol. (% control values). -39

----------
tested on: lipid metabolism; assay: Effects of diphosphonates on lipid metabolism in normal rats (serum lipids, α/β cholesterol); type: in vivo, male Wistar rats; conditions: Rattus norvegicus, po, normal rats (N), 200 mg/kg/day p.o.; read-out: Serum Phospholipids (% control values)
Observed Property: change in vivo at 200 mg/kg/day (%)
Dear colleague, please return just the value in %, with no unit written.

For orientation, consider the following solved cases.
Entry COP(=O)(OC)C(O)(C(C)(C)Oc1ccc(Cl)cc1)P(=O)(OC)OC [Compound 7] has what change in vivo at 200 mg/kg/day? 26

What does the record list as change in vivo at 200 mg/kg/day for COP(=O)(OC)OC(c1ccccc1Cl)P(=O)(OC)OC (stereo not drawn) [Compound 14] ? 22

Suppose we examine the molecule COP(=O)(OC)OC(C(C)(C)c1ccc(Cl)cc1)P(=O)(OC)OC (stereo not drawn) [Compound 21] ; what change in vivo at 200 mg/kg/day value has been reported? 16

Suppose we examine the molecule COP(=O)(OC)OC(c1ccc(C(=O)c2ccc(Cl)cc2)cc1)P(=O)(OC)OC (stereo not drawn) [Compound 23] ; what change in vivo at 200 mg/kg/day value has been reported? 53

Using the record for COP(=O)(OC)C(CCCc1ccccc1)P(=O)(OC)OC [Compound 37] , report its change in vivo at 200 mg/kg/day. 33

Would you kindly share the measured change in vivo at 200 mg/kg/day for CCOP(=O)(OCC)C(CCCc1ccccc1)P(=O)(OCC)OCC [Compound 29] ? 17

May I ask what change in vivo at 200 mg/kg/day has been recorded for CCOC(=O)C(C)(C)Oc1ccc(Cl)cc1 [Clofibrate, reference compound] ? -34

In the following, a different molecule is considered.
Requested read-out: change in vivo at 200 mg/kg/day. Entry: COP(=O)(OC)OC(c1ccc(Cl)cc1)P(=O)(OC)OC (stereo not drawn) [Compound 16] 26

----------
System: lipid metabolism
Test: Effects of diphosphonates on lipid metabolism in normal rats (serum lipids, α/β cholesterol)
Format: in vivo, male Wistar rats
Details: normal rats (N), 200 mg/kg/day p.o.
Method: Effects of diphosphonates of formula (I) on lipid metabolism in normal rats Groups of 4 to 5 normal male Wistar rats, weighing about 200 g were treated with diphosphonates (200 mg/kg/day) p.o. for 4 to 21 days. Water soluble compounds were given in solution in 24 mM bicarbonate buffer. Lipid soluble compounds were given in corn oil. The rats were weighed, sacrificed by decapitation (under light ether anesthesia) after overnight fasting. Blood was collected and serum used for analysis. […]
Observed Property: Serum Triglycerides (% control values) (%)
Output spec: scalar in %, unitless text.

State the recorded Serum Triglycerides (% control values) for this entry: COP(=O)(OC)OC(C1CCCCC1)P(=O)(OC)OC (centres unmarked) -46

Now for the molecule whose Serum Triglycerides (% control values) we want.
// Serum Triglycerides (% control values) lookup, key: COP(=O)(OC)C(O)(c1ccccc1)P(=O)(OC)OC -21
